- Tested on: K562
- TEST_SUMMARY: MTS cytotoxicity assay, 72 h
- Format: cell-based
- CONDITION_DESCRIPTION: Homo sapiens, K562, 72 h, read-out: IC50 K562
pIC50: −log10 of the molar value.
Short version: pIC50 at least 6 is True, less is False.

Use these answered entries as a reference point.
[
  {
    "COMPOUND": "COc1cc2c(c(OC)c1OC)-c1ccc(OC)c(=O)cc1[C@@H](NC(=O)CCCCCCCCCCC1=C3C(C)=CC(C)=[N+]3[B-](F)(F)n3c(C)cc(C)c31)CC2 [CB2]",
    "SYSTEM": "K562",
    "DISCRETE_LABEL": "True"
  },
  {
    "COMPOUND": "COc1cc2c(c(OC)c1OC)-c1ccc(OC)c(=O)cc1[C@@H](n1cc(CCCC3=C4C(C)=CC(C)=[N+]4[B-](F)(F)n4c(C)cc(C)c43)nn1)CC2 [CB4]",
    "SYSTEM": "K562",
    "DISCRETE_LABEL": "True"
  },
  {
    "COMPOUND": "COc1cc2c(c(OC)c1OC)-c1ccc(OC)c(=O)cc1[C@@H](NC(=O)CCCC[N+](C)(C)CCCCC1=C3C(C)=CC(C)=[N+]3[B-](F)(F)n3c(C)cc(C)c31)CC2 [CB3]",
    "SYSTEM": "K562",
    "DISCRETE_LABEL": "False"
  }
]

Could you verify whether the entry COc1cc2c(c(OC)c1OC)-c1ccc(OC)c(=O)cc1[C@@H](NC(=O)CCC1=C3C(C)=CC(C)=[N+]3[B-](F)(F)n3c(C)cc(C)c31)CC2 [CB1] shows pIC50 of no less than 6? True

Could you verify whether the entry COc1cc2c(c(OC)c1OC)-c1ccc(OC)c(=O)cc1[C@@H](n1cc(CCCCCCCCC3=C4C(C)=CC(C)=[N+]4[B-](F)(F)n4c(C)cc(C)c43)[n+](C)n1)CC2 [CB8] shows pIC50 of no less than 6? False

Could you verify whether the entry COc1cc2c(c(OC)c1OC)-c1ccc(OC)c(=O)cc1[C@@H](n1cc(CCCCCCCCC3=C4C(C)=CC(C)=[N+]4[B-](F)(F)n4c(C)cc(C)c43)nn1)CC2 [CB5] shows pIC50 of no less than 6? True

----------
Recorded Mitosis for the following molecules
- System: CCRF-CEM lymphoblasts
- TEST_SUMMARY: FACS analysis of cell cycle, apoptosis, mitosis and polyploidy
- CONDITION_DESCRIPTION: 5×IC50, 24 h, phospho-Histone (Ser10)
Please reply with the bare figure in % and do not write the unit itself.

Known Mitosis results, listed for orientation:
[
  {
    "MOLECULE": "COc1cc2c(c(OC)c1OC)-c1ccc(OC)c(=O)cc1[C@@H](NC(=O)CCCC[N+](C)(C)CCCCC1=C3C(C)=CC(C)=[N+]3[B-](F)(F)n3c(C)cc(C)c31)CC2 [CB3]",
    "PROPERTY_MEASURED": "Mitosis",
    "RESULT_NUMBER": 57.12
  },
  {
    "MOLECULE": "COc1cc2c(c(OC)c1OC)-c1ccc(OC)c(=O)cc1[C@@H](n1cc(CCCCCCCCC3=C4C(C)=CC(C)=[N+]4[B-](F)(F)n4c(C)cc(C)c43)[n+](C)n1)CC2 [CB8]",
    "PROPERTY_MEASURED": "Mitosis",
    "RESULT_NUMBER": 13.33
  },
  {
    "MOLECULE": "COc1cc2c(c(OC)c1OC)-c1ccc(OC)c(=O)cc1[C@@H](n1cc(CCCC3=C4C(C)=CC(C)=[N+]4[B-](F)(F)n4c(C)cc(C)c43)[n+](C)n1)CC2 [CB7]",
    "PROPERTY_MEASURED": "Mitosis",
    "RESULT_NUMBER": 68.32
  },
  {
    "MOLECULE": "COc1cc2c(c(OC)c1OC)-c1ccc(OC)c(=O)cc1[C@@H](n1cc(CCCCCCCCC3=C4C(C)=CC(C)=[N+]4[B-](F)(F)n4c(C)cc(C)c43)nn1)CC2 [CB5]",
    "PROPERTY_MEASURED": "Mitosis",
    "RESULT_NUMBER": 60.70
  },
  {
    "MOLECULE": "COc1cc2c(c(OC)c1OC)-c1ccc(N(C)C(=O)CCC3=C4C(C)=CC(C)=[N+]4[B-](F)(F)n4c(C)cc(C)c43)c(=O)cc1[C@@H](NC(C)=O)CC2 [CB12]",
    "PROPERTY_MEASURED": "Mitosis",
    "RESULT_NUMBER": 23.11
  },
  {
    "MOLECULE": "COc1cc(C2=C3C(C)=CC(C)=[N+]3[B-](F)(F)n3c(C)cc(C)c32)ccc1OCc1cn([C@H]2CCc3cc(OC)c(OC)c(OC)c3-c3ccc(OC)c(=O)cc32)n[n+]1C [CB9]",
    "PROPERTY_MEASURED": "Mitosis",
    "RESULT_NUMBER": 31.00
  },
  {
    "MOLECULE": "COc1cc2c(c(OC)c1OC)-c1ccc(OC)c(=O)cc1[C@@H](NC(=O)CCCCCCCCCCC1=C3C(C)=CC(C)=[N+]3[B-](F)(F)n3c(C)cc(C)c31)CC2 [CB2]",
    "PROPERTY_MEASURED": "Mitosis",
    "RESULT_NUMBER": 79.51
  },
  {
    "MOLECULE": "COc1cc2c(c(OC)c1OC)-c1ccc(N(C)CCCCC3=C4C(C)=CC(C)=[N+]4[B-](F)(F)n4c(C)cc(C)c43)c(=O)cc1[C@@H](NC(C)=O)CC2 [CB11]",
    "PROPERTY_MEASURED": "Mitosis",
    "RESULT_NUMBER": 59.86
  },
  {
    "MOLECULE": "COc1cc(C2=C3C(C)=CC(C)=[N+]3[B-](F)(F)n3c(C)cc(C)c32)ccc1OCc1cn([C@H]2CCc3cc(OC)c(OC)c(OC)c3-c3ccc(OC)c(=O)cc32)nn1 [CB6]",
    "PROPERTY_MEASURED": "Mitosis",
    "RESULT_NUMBER": 61.11
  },
  {
    "MOLECULE": "COc1cc2c(c(OC)c1OC)-c1ccc(OC)c(=O)cc1[C@@H](NC(=O)CCC1=C3C(C)=CC(C)=[N+]3[B-](F)(F)n3c(C)cc(C)c31)CC2 [CB1]",
    "PROPERTY_MEASURED": "Mitosis",
    "RESULT_NUMBER": 17.85
  }
]

Look up and report measured Mitosis for this entry: COc1cc2c(c(OC)c1OC)-c1ccc(OC)c(=O)cc1[C@@H](n1cc(CCCC3=C4C(C)=CC(C)=[N+]4[B-](F)(F)n4c(C)cc(C)c43)nn1)CC2 [CB4] 64.43

Look up and report measured Mitosis for this entry: COc1cc2c(c(OC)c1OC)-c1ccc(NCCCCC3=C4C(C)=CC(C)=[N+]4[B-](F)(F)n4c(C)cc(C)c43)c(=O)cc1[C@@H](NC(C)=O)CC2 [CB10] 36.02

Look up and report measured Mitosis for this entry: COc1cc2c(c(OC)c1OC)-c1ccc(OC)c(=O)cc1[C@@H](NC(C)=O)CC2 [Col, colchicine, reference compound] 64.48

----------
The molecules below have reported RI (resistance index) for panel of cell lines.
The response must contain the number and no unit.

[
  {
    "ITEM_SMILES": "COc1cc2c(c(OC)c1OC)-c1ccc(OC)c(=O)cc1[C@@H](n1cc(CCCCCCCCC3=C4C(C)=CC(C)=[N+]4[B-](F)(F)n4c(C)cc(C)c43)[n+](C)n1)CC2",
    "RESULT_NUMBER": 0.86
  }
]

Identify measured RI (resistance index) obtained with panel of cell lines for COc1cc2c(c(OC)c1OC)-c1ccc(OC)c(=O)cc1[C@@H](NC(=O)CCC1=C3C(C)=CC(C)=[N+]3[B-](F)(F)n3c(C)cc(C)c31)CC2 . 4.16

Identify measured RI (resistance index) obtained with panel of cell lines for COc1cc2c(c(OC)c1OC)-c1ccc(NCCCCC3=C4C(C)=CC(C)=[N+]4[B-](F)(F)n4c(C)cc(C)c43)c(=O)cc1[C@@H](NC(C)=O)CC2 . 1.45

Identify measured RI (resistance index) obtained with panel of cell lines for COc1cc2c(c(OC)c1OC)-c1ccc(OC)c(=O)cc1[C@@H](n1cc(CCCC3=C4C(C)=CC(C)=[N+]4[B-](F)(F)n4c(C)cc(C)c43)[n+](C)n1)CC2 . 1.22

Identify measured RI (resistance index) obtained with panel of cell lines for COc1cc2c(c(OC)c1OC)-c1ccc(OC)c(=O)cc1[C@@H](n1cc(CCCCCCCCC3=C4C(C)=CC(C)=[N+]4[B-](F)(F)n4c(C)cc(C)c43)nn1)CC2 . 2.49
